TARGET: human TLR2 (Homo sapiens)
Construct: host or cells: HEK-Blue hTLR2 (HEK-293)
Sequence (O60603 21-784): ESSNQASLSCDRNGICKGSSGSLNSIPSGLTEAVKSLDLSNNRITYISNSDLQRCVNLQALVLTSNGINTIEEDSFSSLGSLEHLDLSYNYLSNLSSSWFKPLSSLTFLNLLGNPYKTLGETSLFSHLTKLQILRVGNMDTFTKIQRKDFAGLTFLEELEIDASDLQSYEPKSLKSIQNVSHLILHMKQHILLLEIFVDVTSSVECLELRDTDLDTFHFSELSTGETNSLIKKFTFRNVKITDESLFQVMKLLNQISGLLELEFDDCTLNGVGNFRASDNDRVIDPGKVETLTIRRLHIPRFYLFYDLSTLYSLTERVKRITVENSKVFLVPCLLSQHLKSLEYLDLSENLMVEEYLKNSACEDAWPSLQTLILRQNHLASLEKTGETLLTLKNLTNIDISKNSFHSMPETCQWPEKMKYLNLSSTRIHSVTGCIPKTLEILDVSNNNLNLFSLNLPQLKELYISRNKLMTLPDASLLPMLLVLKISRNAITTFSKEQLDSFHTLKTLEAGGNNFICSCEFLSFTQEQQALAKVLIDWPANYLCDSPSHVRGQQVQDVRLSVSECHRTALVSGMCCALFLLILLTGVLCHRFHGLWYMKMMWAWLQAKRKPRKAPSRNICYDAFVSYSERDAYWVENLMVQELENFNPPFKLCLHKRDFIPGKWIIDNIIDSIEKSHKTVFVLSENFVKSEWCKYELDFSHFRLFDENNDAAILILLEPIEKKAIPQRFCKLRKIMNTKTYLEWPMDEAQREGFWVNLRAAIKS
PROTOCOL TEXT: HEK-Blue hTLR2 antagonism assay (SEAP reporter) with agonist Pam2CSK4 (TLR2/6 agonist)
Type: cell-based
RECORDED CONDITIONS: Table A; HEK-Blue hTLR2 cells, ~3×EC50 Pam2CSK4, 18 h, SEAP OD 655 nm, 8-point dilutions
VALUE TYPE: IC50 (µM)

>>> test_result("COc1cc(-c2cnn(Cc3ccccn3)c2)cc(C=O)c1O")
85.5
>>> test_result("COc1cc(-c2ccn(-c3ccccc3)n2)cc(C=O)c1O")
1.9

I. CN1CCN(/N=C/c2cc(-c3cnn(-c4ccc(N5CCCC5)cc4)c3)cc(F)c2O)CC1
II. O=Cc1cc(-c2cnn(-c3cccc(N4CCCC4)c3)c2)cc(F)c1O
III. O=Cc1cc(-c2csc(-c3ccc(Cl)cc3)n2)cc(F)c1O
Parameters: sort_field (IC50), sort_dir (desc). Enter labels, ranked according to the request.
III, I, II
